Where do the numbers come from? From ChEMBL document CHEMBL5154804.

experiment: Cytotoxicity against human BEAS-2B cell assessed as inhibition of cell growth after 24 hrs by MTT assay; assay type: toxicity, cell-based; conditions: BEAS-2B cells
# reported IC50 at 24 h; entries follow

{"smiles-record": "CNC(=O)c1noc(-c2cc(-c3ccc(C)cc3)c(O)cc2O)c1-c1ccc(CN2CCOCC2)cc1", "value-operator": "=", "IC50 at 24 h [µM]": 12.2}
{"smiles-record": "CCNC(=O)c1noc(-c2cc(-c3ccc(C)cc3)c(O)cc2O)c1-c1ccc(CN2CCOCC2)cc1", "value-operator": ">", "IC50 at 24 h [µM]": 50}
{"smiles-record": "CNC(=O)c1noc(-c2cc(-c3ccc(C)cc3)c(O)cc2O)c1-c1ccc(CN2CCCCC2)cc1", "value-operator": "=", "IC50 at 24 h [µM]": 11.6}
{"smiles-record": "CCNC(=O)c1noc(-c2cc(-c3ccc(C)cc3)c(O)cc2O)c1-c1ccc(CN2CCCCC2)cc1", "value-operator": "=", "IC50 at 24 h [µM]": 10}

* * *

Entries and their MIC80
test system: Candida albicans; assay: Synergistic antifungal activity against fluconazole-resistant Candida albicans 901 assessed as inhibition of fungal growth in presence of fluconazole by checker board microdilution assay; type: functional
assay-endpoint: MIC80 (µg/mL)

{"smiles-record": "CCCNC(=O)c1noc(-c2cc(-c3ccc(C)cc3)c(O)cc2O)c1-c1ccc(CN2CCOCC2)cc1", "assay-endpoint": "MIC80", "value-operator": "=", "numeric-result": 4}
{"smiles-record": "CCNC(=O)c1noc(-c2cc(-c3ccccc3Cl)c(O)cc2O)c1-c1ccc(CN2CCOCC2)cc1", "assay-endpoint": "MIC80", "value-operator": ">", "numeric-result": 64}
{"smiles-record": "CCNC(=O)c1noc(-c2cc(-c3ccc(C)cc3)c(O)cc2O)c1-c1ccc(CN2CCS(=O)(=O)CC2)cc1", "assay-endpoint": "MIC80", "value-operator": "=", "numeric-result": 64}
{"smiles-record": "CCNC(=O)c1noc(-c2cc(-c3ccc(OC)cc3)c(O)cc2O)c1-c1ccc(CN2CCOCC2)cc1", "assay-endpoint": "MIC80", "value-operator": "=", "numeric-result": 8}

* * *

experiment: Metabolic stability in human liver microsomes assessed as microsomal intrinsic clearance in presence of NADPH cofactor under shaking condition for 10 mins measured after 5 to 60 mins by LC-MS/MS analysis; assay type: ADME, Microsome; conditions: time 15-70 min
assay-endpoint: CLint (µL/min/mg)

{"smiles-record": "CCNC(=O)c1noc(-c2cc(-c3cccc(Cl)c3)c(O)cc2O)c1-c1ccc(CN2CCOCC2)cc1", "assay-endpoint": "CLint", "numeric-result": 72}
{"smiles-record": "CCNC(=O)c1noc(-c2cc(-c3ccc(C)cc3)c(O)cc2O)c1-c1ccc(CN2CCCCC2)cc1", "assay-endpoint": "CLint", "numeric-result": 32}
{"smiles-record": "CCNC(=O)c1noc(-c2cc(-c3cccc(CC)c3)c(O)cc2O)c1-c1ccc(CN2CCOCC2)cc1", "assay-endpoint": "CLint", "numeric-result": 80.7}
{"smiles-record": "CNC(=O)c1noc(-c2cc(-c3ccc(C)cc3)c(O)cc2O)c1-c1ccc(CN2CCOCC2)cc1", "assay-endpoint": "CLint", "numeric-result": 55.9}
{"smiles-record": "CNC(=O)c1noc(-c2cc(-c3ccc(C)cc3)c(O)cc2O)c1-c1ccc(CN2CCCCC2)cc1", "assay-endpoint": "CLint", "numeric-result": 32}
{"smiles-record": "CCNC(=O)c1noc(-c2cc(-c3ccc(C)cc3)c(O)cc2O)c1-c1ccc(CN2CCOCC2)cc1", "assay-endpoint": "CLint", "numeric-result": 43.2}
{"smiles-record": "CCNC(=O)c1noc(-c2cc(-c3cccc(C(C)C)c3)c(O)cc2O)c1-c1ccc(CN2CCOCC2)cc1", "assay-endpoint": "CLint", "numeric-result": 91.9}

* * *

test system: Candida albicans; assay: Synergistic antifungal activity against fluconazole-resistant Candida albicans 632 assessed as inhibition of fungal growth in presence of fluconazole by checker board microdilution assay; type: functional
assay-endpoint: MIC80 (µg/mL)

{"molecule": "CCNC(=O)c1noc(-c2cc(-c3ccc(C)cc3)c(O)cc2O)c1-c1ccc(CN2CC(C)CC(C)C2)cc1 (stereo unspecified)", "unit-text": "µg/mL", "value-operator": "=", "numeric-result": 2}
{"molecule": "CCNC(=O)c1noc(-c2cc(-c3ccc(C(C)C)cc3)c(O)cc2O)c1-c1ccc(CN2CCOCC2)cc1", "unit-text": "µg/mL", "value-operator": ">", "numeric-result": 64}
{"molecule": "CCCNC(=O)c1noc(-c2cc(-c3ccc(C)cc3)c(O)cc2O)c1-c1ccc(CN2CCCCC2)cc1", "unit-text": "µg/mL", "value-operator": "=", "numeric-result": 4}
{"molecule": "CCNC(=O)c1noc(-c2cc(-c3ccc(C)cc3)c(O)cc2O)c1-c1ccc(CN2CCN(C)CC2)cc1", "unit-text": "µg/mL", "value-operator": ">", "numeric-result": 64}
{"molecule": "Cc1ccc(-c2cc(-c3onc(C(=O)N(C)C)c3-c3ccc(CN4CCCCC4)cc3)c(O)cc2O)cc1", "unit-text": "µg/mL", "value-operator": "=", "numeric-result": 8}
{"molecule": "Cc1ccc(-c2cc(-c3onc(C(=O)NC(C)C)c3-c3ccc(CN4CCOCC4)cc3)c(O)cc2O)cc1", "unit-text": "µg/mL", "value-operator": "=", "numeric-result": 8}

* * *

system: Candida albicans; test: Synergistic antifungal activity against fluconazole-resistant Candida albicans 632 assessed as inhibition of fungal growth in presence of fluconazole by checker board microdilution assay; format: functional
The following molecules are listed with their measured MIC80 values.

{"molecule": "CCNC(=O)c1noc(-c2cc(-c3ccc(C)cc3)c(O)cc2O)c1-c1ccc(CNC2CCOCC2)cc1", "MIC80": "> 64 µg/mL"}
{"molecule": "CCNC(=O)c1noc(-c2cc(-c3ccccc3F)c(O)cc2O)c1-c1ccc(CN2CCOCC2)cc1", "MIC80": "> 64 µg/mL"}
{"molecule": "Cc1ccc(-c2cc(-c3onc(C(=O)NC4COC4)c3-c3ccc(CN4CCOCC4)cc3)c(O)cc2O)cc1", "MIC80": "> 64 µg/mL"}
{"molecule": "CCNC(=O)c1noc(-c2cc(-c3ccccc3C)c(O)cc2O)c1-c1ccc(CN2CCOCC2)cc1", "MIC80": "> 64 µg/mL"}
{"molecule": "CCNC(=O)c1noc(-c2cc(-c3cccc(C(F)(F)F)c3)c(O)cc2O)c1-c1ccc(CN2CCOCC2)cc1", "MIC80": "> 64 µg/mL"}
{"molecule": "OC(Cn1cncn1)(Cn1cncn1)c1ccc(F)cc1F [FLUCONAZOLE]", "MIC80": "> 64 µg/mL"}
{"molecule": "CCNC(=O)c1noc(-c2cc(-c3ccccc3Cl)c(O)cc2O)c1-c1ccc(CN2CCOCC2)cc1", "MIC80": "> 64 µg/mL"}
{"molecule": "CCNC(=O)c1noc(-c2cc(-c3ccc(C)cc3)c(O)cc2O)c1-c1ccc(CNC2CCCC2)cc1", "MIC80": "> 64 µg/mL"}
{"molecule": "Cc1ccc(-c2cc(-c3onc(C(=O)NC4COC4)c3-c3ccc(CN4CCCCC4)cc3)c(O)cc2O)cc1", "MIC80": "> 64 µg/mL"}
{"molecule": "CCNC(=O)c1noc(-c2cc(-c3ccc(C)cc3)c(O)cc2O)c1-c1ccc(CN2CCC(N3CCOCC3)CC2)cc1", "MIC80": "> 64 µg/mL"}
{"molecule": "CCNC(=O)c1noc(-c2cc(-c3ccc(OC(F)(F)F)cc3)c(O)cc2O)c1-c1ccc(CN2CCOCC2)cc1", "MIC80": "> 64 µg/mL"}
{"molecule": "CCNC(=O)c1noc(-c2cc(-c3ccc(CC)cc3)c(O)cc2O)c1-c1ccc(CN2CCOCC2)cc1", "MIC80": "2 µg/mL"}
{"molecule": "Cc1ccc(-c2cc(-c3onc(C(=O)N4CCC4)c3-c3ccc(CN4CCCCC4)cc3)c(O)cc2O)cc1", "MIC80": "> 64 µg/mL"}
{"molecule": "CCNC(=O)c1noc(-c2cc(-c3ccc(-c4ccccc4)cc3)c(O)cc2O)c1-c1ccc(CN2CCOCC2)cc1", "MIC80": "> 64 µg/mL"}
{"molecule": "CCNC(=O)c1noc(-c2cc(-c3ccc(C)cc3)c(O)cc2O)c1-c1ccc(CN2CCS(=O)(=O)CC2)cc1", "MIC80": "> 64 µg/mL"}
{"molecule": "CCNC(=O)c1noc(-c2cc(-c3ccc(C(F)(F)F)cc3)c(O)cc2O)c1-c1ccc(CN2CCOCC2)cc1", "MIC80": "> 64 µg/mL"}
{"molecule": "CCNC(=O)c1noc(-c2cc(-c3cccc(OC(F)(F)F)c3)c(O)cc2O)c1-c1ccc(CN2CCOCC2)cc1", "MIC80": "> 64 µg/mL"}
{"molecule": "CCNC(=O)c1noc(-c2cc(-c3cccc(CC)c3)c(O)cc2O)c1-c1ccc(CN2CCOCC2)cc1", "MIC80": "0.5 µg/mL"}
{"molecule": "Cc1ccc(-c2cc(-c3onc(C(=O)NC4CCC4)c3-c3ccc(CN4CCOCC4)cc3)c(O)cc2O)cc1", "MIC80": "64 µg/mL"}
{"molecule": "CCNC(=O)c1noc(-c2cc(-c3ccc(F)cc3)c(O)cc2O)c1-c1ccc(CN2CCOCC2)cc1", "MIC80": "4 µg/mL"}
{"molecule": "CCNC(=O)c1noc(-c2cc(-c3ccccc3C(C)C)c(O)cc2O)c1-c1ccc(CN2CCOCC2)cc1", "MIC80": "> 64 µg/mL"}
{"molecule": "CCNC(=O)c1noc(-c2cc(-c3cccc(C(C)(C)C)c3)c(O)cc2O)c1-c1ccc(CN2CCOCC2)cc1", "MIC80": "> 64 µg/mL"}
{"molecule": "Cc1ccc(-c2cc(-c3onc(C(=O)NC4CC4)c3-c3ccc(CN4CCOCC4)cc3)c(O)cc2O)cc1", "MIC80": "32 µg/mL"}
